Molecular target: Hck (UniProt P08631)
Sequence (P08631 whole entry, looked up): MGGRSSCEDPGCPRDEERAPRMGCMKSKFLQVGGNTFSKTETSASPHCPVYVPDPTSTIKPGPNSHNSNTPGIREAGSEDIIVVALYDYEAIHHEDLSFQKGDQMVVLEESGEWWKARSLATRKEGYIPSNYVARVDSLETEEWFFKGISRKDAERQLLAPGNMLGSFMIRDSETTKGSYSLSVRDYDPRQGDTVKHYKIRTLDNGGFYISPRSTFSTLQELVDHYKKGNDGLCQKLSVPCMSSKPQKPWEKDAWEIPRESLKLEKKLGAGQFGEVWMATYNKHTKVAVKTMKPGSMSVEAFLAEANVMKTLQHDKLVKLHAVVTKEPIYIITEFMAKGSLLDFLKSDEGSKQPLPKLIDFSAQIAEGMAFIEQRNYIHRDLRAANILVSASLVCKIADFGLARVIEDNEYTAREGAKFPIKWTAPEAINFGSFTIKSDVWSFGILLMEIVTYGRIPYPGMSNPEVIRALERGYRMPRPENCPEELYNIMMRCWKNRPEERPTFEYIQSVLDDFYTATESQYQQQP
Assay: phosphorylation enrichment, bacterial display (enrichment ratio); higher = better substrate or ligand; peptides without Tyr show the background
Classification field: enter yes for phosphorylation enrichment values not below 0.5, no for values below it.

| MONOMER SEQUENCE | LABEL VALUE |
| --- | --- |
| ALWFIYLHTRS [ENG_Y614_S615L_YF] | no |
| FLGRNYLETLM [DUS3L_Y610_D609N_YF] | no |
| AQQPIYVRVEG [NLRP7_Y318] | yes |
| RAEIVYKSPVV [MAPT_Y711_G706R] | yes |

--- query ---
Problem: For this sequence, is measured phosphorylation enrichment 0.5 or higher? DSFATYFRWVL [H2BW1_Y84_R87W]
Result: yes

###

Target: Fyn (UniProt P06241)
Sequence (P06241 whole entry, looked up): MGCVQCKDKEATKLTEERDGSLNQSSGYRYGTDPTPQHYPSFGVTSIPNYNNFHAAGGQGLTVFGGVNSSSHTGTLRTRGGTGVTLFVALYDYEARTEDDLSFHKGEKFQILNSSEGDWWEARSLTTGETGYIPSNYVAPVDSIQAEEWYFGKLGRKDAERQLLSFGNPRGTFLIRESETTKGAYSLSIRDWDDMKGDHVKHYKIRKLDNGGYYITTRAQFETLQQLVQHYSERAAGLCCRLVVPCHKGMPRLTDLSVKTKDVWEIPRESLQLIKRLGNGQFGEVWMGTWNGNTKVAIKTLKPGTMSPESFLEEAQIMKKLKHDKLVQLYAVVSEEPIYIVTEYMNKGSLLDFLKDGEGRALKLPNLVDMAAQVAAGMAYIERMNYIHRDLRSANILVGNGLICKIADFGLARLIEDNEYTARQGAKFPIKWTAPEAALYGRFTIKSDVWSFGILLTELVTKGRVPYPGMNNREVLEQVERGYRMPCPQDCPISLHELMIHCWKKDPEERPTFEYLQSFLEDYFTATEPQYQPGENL
Test: phosphorylation enrichment, bacterial display (enrichment ratio); higher = better substrate or ligand; peptides without Tyr show the background
Each entry below lists one item and its recorded phosphorylation enrichment value.

| MONOMER SEQUENCE | phosphorylation enrichment |
| --- | --- |
| VDSLRYIYPKL [EIF2B3_Y92_A87V] | 0.48 |
| HKDNNYVSMWF [PAPOLG_Y432] | 0.77 |
| VPVPGYTKLPE [SPRR3_Y146] | 0.464 |
| SAASSYSFSDL [EMD_Y59] | 0.477 |

Reported phosphorylation enrichment (Fyn (UniProt P06241)) for entry FEELVYETVRV [FSHB_Y76_K72E] is 7.8

Reported phosphorylation enrichment (Fyn (UniProt P06241)) for entry DESEDCRDTVV [CNNM3_Y456_Y456C] is 0.528

Reported phosphorylation enrichment (Fyn (UniProt P06241)) for entry EYHRLYEEYTR [PIK3R1_Y467_D464H] is 5.5

Reported phosphorylation enrichment (Fyn (UniProt P06241)) for entry TSPKSYPSQKH [CAP2_Y316] is 0.434

Reported phosphorylation enrichment (Fyn (UniProt P06241)) for entry VGTKRYRAPEV [ACVRL1_Y375_M376R] is 0.379

Reported phosphorylation enrichment (Fyn (UniProt P06241)) for entry QAKRKYQEVSK [FES_Y156_A159V] is 0.365

###

Each entry below lists one item and its recorded SH2 binding enrichment value.
Biological target: Grb2 SH2 (UniProt P62993)
Sequence (P62993 whole entry, looked up): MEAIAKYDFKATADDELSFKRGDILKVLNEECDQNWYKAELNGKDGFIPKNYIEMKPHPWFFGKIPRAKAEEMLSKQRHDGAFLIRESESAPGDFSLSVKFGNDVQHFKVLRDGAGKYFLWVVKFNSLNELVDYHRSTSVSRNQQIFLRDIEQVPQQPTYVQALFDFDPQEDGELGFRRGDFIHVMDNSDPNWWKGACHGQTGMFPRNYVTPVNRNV
Experiment: SH2 binding enrichment of the phosphorylated peptide, bacterial display (enrichment ratio); higher = better substrate or ligand; peptides without Tyr show the background

| MONOMER SEQUENCE | RESULT |
| --- | --- |
| NPETCYQRLKK [TK2_Y190] | 0.787 |
| IGEGTYGVVFK [CDK2_Y15_YF] | 0.799 |
| DLDTDYGSGYP [RNASEH2A_Y206] | 0.816 |
| INASGYRIGPA [ACSM1_Y477] | 0.799 |
| CEDMEYLESKQ [BTK_Y511_A508D] | 0.805 |

DENWFYTRAAS [RPS19_Y54] has a reported SH2 binding enrichment of 0.821

###

System: c-Src
Assay: phosphorylation enrichment, bacterial display (enrichment ratio); higher = better substrate or ligand; peptides without Tyr show the background
READOUT NAME: phosphorylation enrichment
API note: the answer field is a bare number with no unit suffix.

| MONOMER SEQUENCE | MEASURED NUMBER |
| --- | --- |
| FGSIMYEFVGK [SLC18A1_Y251_V249I] | 1.44 |
| LNLKEYNLVGG [GNAQ_Y356] | 0.561 |
| FFDANCDGKEF [MAPRE2_Y162_Y162C_YF] | 0.537 |
| KGKLIYLLRDS [NXPE1_Y350_G353R] | 0.516 |
| HILRVYSGVLP [PCNX4_Y999_G1000S] | 0.745 |

GGTTMYPGIAD [ACTC1_Y308] has a reported phosphorylation enrichment of 0.484

FFIMMYTGSSV [DNAJC13_Y1131_N1135S] has a reported phosphorylation enrichment of 0.342

IMVFVYCRVFQ [ADRB2_Y219_S220C] has a reported phosphorylation enrichment of 0.395

VSSPKYGSNDE [TMCC2_Y473_D476N] has a reported phosphorylation enrichment of 0.514

ETLLFYGFRRS [POR_Y564_C566Y_YF] has a reported phosphorylation enrichment of 0.514

KNITEYCRDLI [RECQL_Y492] has a reported phosphorylation enrichment of 0.42

CTTILYNYMCN [TP53_Y234_H233L] has a reported phosphorylation enrichment of 1.24

QYNIQYSSSAA [ERBB2IP_Y981] has a reported phosphorylation enrichment of 0.749

SPFEVYVDKSQ [FLNA_Y373] has a reported phosphorylation enrichment of 0.481
